Reference source: patent EP4039268A1

Target: T1, monomeric SARS-CoV-2 receptor binding domain (RBD-H6) (SARS-CoV-2, UniProt P0DTC2 319-541)
T1 construct: Made in HEK293-6E cells; also called RBD Spike; monomeric RBD
Assay: ELISA screen
assay.metric: Mean normalized OD (OD)
Hi! Could you send only the number? It should be in OD, unit omitted.

binder | observed.value
Clec2l CRD-mouse IgG2a-Fc fusion protein (Fc fusion) YGRKCYYFSEEPRDWNTGRQYCHTHEAALAVIQSQKELEFMFKFTRREPWIGLRRVGDDFHWVNGDPFDPDTFTISGMGECVFVEPTRLVSTECLTTRPWVCSGGGSGGGSGGGS | 0

// next item, Mean normalized OD requested
// query // lookup Mean normalized OD for Siglec15 CRD-mouse IgG2a-Fc fusion protein (Fc fusion) PAQRWSMQVPAEVNAEAGDAAVLPCTFTHPHRHYDGPLTAIWRSGEPYAGPQVFRCTAAPGSELCQTALSLHGRFRLLGNPRRNDLSLRVERLALADSGRYFCRVEFTGDAHDRYESRHGGGSGGGSGGGS
// result 0.001
